molecular target: Human immunodeficiency virus type 1 reverse transcriptase (Human immunodeficiency virus 1, UniProt Q72547); assay: Inhibitory concentration against HIV-1 wild type reverse transcriptase (IIIB)
pIC50: −log10 of the molar value.
Test Readout: pIC50

{"Compound": "O=C1c2ccccc2C(=O)N1CCOC(=S)Nc1ccc(I)cc1", "Assay Result": 7.05}
{"Compound": "Cl.S=C(NCCc1ccccn1)Nc1ccc(Br)cn1 [TROVIRDINE HYDROCHLORIDE]", "Assay Result": 5.99}
{"Compound": "O=C(O)c1ccccc1C(=O)NCCO/C(S)=N\\c1ccc(I)cc1", "Assay Result": 5.77}

* * *

biological target: Human immunodeficiency virus type 1 reverse transcriptase (Human immunodeficiency virus 1, UniProt Q72547, K103N/Y181C); assay: Inhibitory concentration against HIV-1 mutant reverse transcriptase (K103N+Y181C)
pIC50: −log10 of the molar value.
We begin with a simple list: items and their reported pIC50.
Test Readout: pIC50

{"Compound": "O=C1c2ccccc2C(=O)N1CCOC(=S)Nc1ccc(I)cc1", "Assay Result": "< 4.70"}
{"Compound": "O=C(O)c1ccccc1C(=O)NCCO/C(S)=N\\c1ccc(I)cc1", "Assay Result": "< 4.70"}
{"Compound": "Cl.S=C(NCCc1ccccn1)Nc1ccc(Br)cn1 [TROVIRDINE HYDROCHLORIDE]", "Assay Result": "< 4.70"}

* * *

Each entry below lists one item and its recorded EC50 value.
system: MT4; experiment: Effective concentration require to protect MT-4 cells from HIV-1 Y181C mutant induced cytopathogenicity was determined by MTT method; type: functional, cell-based, Homo sapiens

{"Molecule": "O=C1c2ccccc2C(=O)N1CCOC(=S)Nc1ccc(Br)cc1", "Measurement Unit": "µM", "EC50": 2.4}
{"Molecule": "O=C1c2ccccc2C(=O)N1CCOC(=S)Nc1ccc(Cl)cc1", "Measurement Unit": "µM", "EC50": 2.3}
{"Molecule": "Cl.S=C(NCCc1ccccn1)Nc1ccc(Br)cn1 [TROVIRDINE HYDROCHLORIDE]", "Measurement Unit": "µM", "EC50": 1.2}
{"Molecule": "O=C1c2ccccc2C(=O)N1CCOC(=S)Nc1ccc([N+](=O)[O-])cc1", "Measurement Unit": "µM", "EC50": 6}
{"Molecule": "O=C1c2ccccc2C(=O)N1CCOC(=S)Nc1ccc(F)cc1", "Measurement Unit": "µM", "EC50": 38}
{"Molecule": "N#Cc1ccc(NC(=S)OCCN2C(=O)c3ccccc3C2=O)cc1", "Measurement Unit": "µM", "EC50": 5.9}

* * *

Measured IC50, listed per entry for reference.
biological target: Human immunodeficiency virus type 1 reverse transcriptase (Human immunodeficiency virus 1, UniProt Q72547); experiment: Inhibitory concentration against HIV-1 mutant reverse transcriptase (K103R)
Test Readout: IC50

{"Compound": "Cl.S=C(NCCc1ccccn1)Nc1ccc(Br)cn1 [TROVIRDINE HYDROCHLORIDE]", "Assay Result": "> 20 µM"}
{"Compound": "O=C(O)c1ccccc1C(=O)NCCO/C(S)=N\\c1ccc(I)cc1", "Assay Result": "> 20 µM"}
{"Compound": "O=C1c2ccccc2C(=O)N1CCOC(=S)Nc1ccc(I)cc1", "Assay Result": "2.3 µM"}

* * *

system: MT4; test: Effective concentration require to inhibit human immunodeficiency virus type 1 induced cytopathogenicity in MT-4 cells determined by MTT method; assay type: functional, cell-based
pEC50: −log10 of the molar value.

{"Smiles Structure": "Cc1ccc(NC(=S)OCCN2C(=O)c3ccccc3C2=O)cc1", "Assay System": "MT4", "pEC50": 5.74}
